experiment: Maximum concentration of unchanged drug in plasma recorded in the period 0-6 hr of postdose to hamster at 40 mg/kg oral dose; assay type: ADME, organism-based; design: dose 40 mg/kg, route oral; details: cricetinae
measurement.label: Cmax

## Input Entry CC(C)C(NC(=O)Cn1c(-c2ccccc2)ccc(NC(=O)OCc2ccncc2)c1=O)C(=O)C(F)(F)F (stereo unspecified) has what Cmax?
## Output 2.77 µg/mL

* * *

assay: Time taken to reach maximum drug concentration in plasma of anesthetized rat at 25 mg/kg oral dose; assay type: ADME, organism-based; parameters: dose 25 mg/kg, route oral
measurement.label: Tmax (h)
Enter your answer as a number in h; do not include the unit.

## Input Reported Tmax for CC(C)C(NC(=O)Cn1c(-c2ccccc2)ccc(NC(=O)OCc2ccccc2)c1=O)C(=O)C(F)(F)F (stereo unspecified) : what is it?
## Output 1.4

* * *

assay: Oral bioavailability was measured at concentration of 40 mg/kg oral dose; format: ADME, organism-based; conditions: eutheria, in vivo
measurement.label: bioavailability (%)
Answer with a number only, understood to be in %.

## Input Recorded bioavailability for CC(C)C(NC(=O)Cn1c(-c2ccccc2)ccc(NC(=O)OCc2ccncc2)c1=O)C(=O)C(F)(F)F (stereo unspecified) , please?
## Output 45

* * *

assay: Oral bioavailability was measured at concentration of 25 mg/kg oral dose; type: ADME, organism-based; conditions: eutheria, in vivo
measurement.label: bioavailability (%)
Write the number in % without appending the unit.

## Input Look at this compound and give its reported bioavailability. CC(C)C(NC(=O)Cn1c(-c2ccccc2)ccc(NC(=O)OCc2ccccc2)c1=O)C(=O)C(F)(F)F (stereo unspecified)
## Output 59

* * *

test: Maximum concentration of unchanged drug in plasma recorded in the period 0-6 hr of postdose in dog at 5 mg/kg oral dose; format: ADME, organism-based, Canis lupus familiaris; set-up: dose 5 mg/kg, route oral
measurement.label: Cmax
Answer by giving the amount and then stating its unit.

## Input Query: Cmax; subject: CC(C)C(NC(=O)Cn1c(-c2ccccc2)ccc(NC(=O)OCc2ccncc2)c1=O)C(=O)C(F)(F)F (stereo unspecified)
## Output 3150 ng/mL

* * *

test: Time taken to reach half of the concentration in blood plasma of hamster at 40 mg/kg oral dose; type: ADME, organism-based; set-up: dose 40 mg/kg, route oral; settings: cricetinae
Here the recorded half-life is given for each entry.
Enter your answer as a number in h; do not include the unit.

[[record]]
compound = "CC(C)C(NC(=O)Cn1c(-c2ccccc2)ccc(NC(=O)OCc2ccncc2)c1=O)C(=O)C(F)(F)F (configuration not stated)"
unit_of_measure = "h"
quantitative_readout = 1.3


Turning to the following compound.
## Input So what's the measured half-life for this one? CC(=O)Nc1ccc(-c2ccccc2)n(CC(=O)NC(C(=O)C(F)(F)F)C(C)C)c1=O (configuration not stated)
## Output 1.9

* * *

assay: physchem; conditions: octanol/water
Kindly apply the following: rule met if logP is less than 2, rule not met in every other case.

Before answering, review these 5 worked examples.
[[record]]
molecule = "CC(C)C(NC(=O)Cn1c(-c2ccccc2)ccc(NC(=O)Cc2ccccc2C(=O)O)c1=O)C(=O)C(F)(F)F (configuration not stated)"
discrete_label = "rule met"

[[record]]
molecule = "CC(C)C(NC(=O)Cn1c(-c2ccccc2)ccc(NC(=O)OCc2ccccn2)c1=O)C(=O)C(F)(F)F (configuration not stated)"
discrete_label = "rule met"

[[record]]
molecule = "CC(C)C(NC(=O)Cn1c(-c2ccccc2)ccc(NC(=O)OCc2ccncc2)c1=O)C(=O)C(F)(F)F (configuration not stated)"
discrete_label = "rule not met"

[[record]]
molecule = "CC(C)C(NC(=O)Cn1c(-c2ccccc2)ccc(NC(=O)NCc2ccc[n+]([O-])c2)c1=O)C(=O)C(F)(F)F (configuration not stated)"
discrete_label = "rule met"

[[record]]
molecule = "CC(C)C(NC(=O)Cn1c(-c2ccccc2)ccc(NS(C)(=O)=O)c1=O)C(=O)C(F)(F)F (configuration not stated)"
discrete_label = "rule met"


## Input Regarding CC(C)C(NC(=O)Cn1c(-c2ccccc2)ccc(NC(=O)NCc2ccncc2)c1=O)C(=O)C(F)(F)F (configuration not stated) , kindly confirm whether its logP is beneath 2.
## Output rule not met

## Input Identify whether the molecule CC(C)C(NC(=O)Cn1c(-c2ccccc2)ccc(N)c1=O)C(=O)C(F)(F)F (configuration not stated) records logP below 2.
## Output rule met

## Input Is it true that logP reported for CC(C)C(NC(=O)Cn1c(-c2ccccc2)ccc(NS(=O)(=O)NCc2ccccc2)c1=O)C(=O)C(F)(F)F (configuration not stated) is less than 2?
## Output rule not met

## Input Is logP strictly under 2 for the entry CC(C)C(NC(=O)Cn1c(-c2ccccc2)ccc(NS(=O)(=O)c2ccccc2)c1=O)C(=O)C(F)(F)F (configuration not stated) ?
## Output rule not met

## Input Identify whether the molecule CC(C)C(NC(=O)Cn1c(-c2ccccc2)ccc(NC=O)c1=O)C(=O)C(F)(F)F (configuration not stated) records logP below 2.
## Output rule met

## Input Threshold test, logP < 2: Cc1cc(COC(=O)Nc2ccc(-c3ccccc3)n(CC(=O)NC(C(=O)C(F)(F)F)C(C)C)c2=O)cc(C)n1 (configuration not stated)
## Output rule not met

## Input Please determine if CC(C)C(NC(=O)Cn1c(-c2ccccc2)ccc(NC(=O)NCc2ccccn2)c1=O)C(=O)C(F)(F)F (configuration not stated) is below 2 in terms of logP.
## Output rule not met

## Input Criterion: logP strictly below 2. Is it met by CC(C)C(NC(=O)Cn1c(-c2ccccc2)ccc(NC(=O)Cc2ccc(C(=O)O)cc2)c1=O)C(=O)C(F)(F)F (configuration not stated) ?
## Output rule met

## Input Strictly below 2 in logP? CC(C)C(NC(=O)Cn1c(-c2ccccc2)ccc(NC(=O)NCc2cccnc2)c1=O)C(=O)C(F)(F)F (configuration not stated)
## Output rule not met

## Input Could you please tell me whether logP recorded for CC(C)C(NC(=O)Cn1c(-c2ccccc2)ccc(NC(=O)OCc2ccc(C(=O)O)cc2)c1=O)C(=O)C(F)(F)F (configuration not stated) is less than 2?
## Output rule met

## Input Does this molecule meet the criterion logP < 2? CCNc1ccc(-c2ccccc2)n(CC(=O)NC(C(=O)C(F)(F)F)C(C)C)c1=O (configuration not stated)
## Output rule not met

* * *

assay: Time taken to reach maximum drug concentration in plasma of hamster at 40 mg/kg oral dose; type: ADME, organism-based; parameters: dose 40 mg/kg, route oral; conditions: cricetinae
measurement.label: Tmax
Form entry: enter the amount, then its unit.

[[record]]
compound = "CC(C)C(NC(=O)Cn1c(-c2ccccc2)ccc(NC(=O)OCc2ccncc2)c1=O)C(=O)C(F)(F)F (configuration not stated)"
measurement_label = "Tmax"
result = "15 min"


In the following, a different compound is considered.
## Input Need Tmax, item CC(=O)Nc1ccc(-c2ccccc2)n(CC(=O)NC(C(=O)C(F)(F)F)C(C)C)c1=O (configuration not stated)
## Output 15 min

* * *

assay: physchem; details: octanol/water
So basically: logP at 2 or higher? That is class 1. Lower than 2? That is class 0.

Worked cases, answers included:
[[record]]
molecule = "CC(=O)Nc1ccc(-c2ccccc2)n(CC(=O)NC(C(=O)C(F)(F)F)C(C)C)c1=O (stereo not given)"
discrete_label = "class 0"

[[record]]
molecule = "CC(C)C(NC(=O)Cn1c(-c2ccccc2)ccc(NS(N)(=O)=O)c1=O)C(=O)C(F)(F)F (stereo not given)"
discrete_label = "class 0"

[[record]]
molecule = "COc1ccc(S(=O)(=O)Nc2ccc(-c3ccccc3)n(CC(=O)NC(C(=O)C(F)(F)F)C(C)C)c2=O)cc1 (stereo not given)"
discrete_label = "class 1"

[[record]]
molecule = "CC(C)C(NC(=O)Cn1c(-c2ccccc2)ccc(NC(=O)NCc2cc[n+]([O-])cc2)c1=O)C(=O)C(F)(F)F (stereo not given)"
discrete_label = "class 0"


Now for another entry.
## Input // inclusive: logP at least 2? input: CC(C)C(NC(=O)Cn1c(-c2ccccc2)ccc(NC(=O)C(F)(F)F)c1=O)C(=O)C(F)(F)F (stereo not given)
## Output class 1

* * *

test: Time taken to reach half of the concentration in blood plasma of dog at 5 mg/kg oral dose; format: ADME, organism-based, Canis lupus familiaris; design: dose 5 mg/kg, route oral
measurement.label: half-life (min)
# value in min; strip the unit string

## Input // lookup half-life for CC(C)C(NC(=O)Cn1c(-c2ccccc2)ccc(NC(=O)OCc2ccncc2)c1=O)C(=O)C(F)(F)F (stereo unspecified)
## Output 48

* * *

experiment: Time taken to reach maximum drug concentration in plasma of dog at 5 mg/kg oral dose; format: ADME, organism-based, Canis lupus familiaris; parameters: dose 5 mg/kg, route oral
measurement.label: Tmax (h)
I only need the number, in h, no unit after it.

## Input Which Tmax value belongs to CC(C)C(NC(=O)Cn1c(-c2ccccc2)ccc(NC(=O)OCc2ccncc2)c1=O)C(=O)C(F)(F)F (stereo unspecified) ?
## Output 1
